- Protocol Summary: Antioxidant activity assessed as hydroxyl radical scavenging activity at 15 uM by ESR spin trapping assay
- Type: physicochemical
Assay Metric: Activity

Field: example entries. Status: answers known.
In [3]: df
Out[3]:
                           structure_string  test_value
0  CC[C@H](CC[C@@H](C)[C@H]1CC[C@H]2[C@@H]3CC[C@H]4C[C@@H](OC(=O)/C=C/c5ccc(O)c(OC)c5)CC[C@]4(C)[C@H]3CC[C@]12C)C(C)C         40%
1               COC(=O)/C=C/c1ccc(O)c(OC)c1         43%
2  COc1cc(/C=C/C(=O)O[C@H]2CC[C@@]3(C)C(=CC[C@H]4[C@@H]5CC[C@H]([C@H](C)CC[C@@H](C)C(C)C)[C@@]5(C)CC[C@@H]43)C2)ccc1O         39%

Kindly consider the entry below.
Q. So what's the measured Activity for this one? "CC[C@H](/C=C/[C@@H](C)[C@H]1CC[C@H]2[C@@H]3CC=C4C[C@@H](OC(=O)/C=C/c5ccc(O)c(OC)c5)CC[C@]4(C)[C@H]3CC[C@]12C)C(C)C"
A. 44%
